# system_under_test: T1, human IL-33 (R&D Systems, #3625-IL-010/CF) (human, UniProt O95760 112-270)
# T1 construct: Commercial recombinant protein; also called hIL-33; interleukin-33
# T1 sequence (looked up): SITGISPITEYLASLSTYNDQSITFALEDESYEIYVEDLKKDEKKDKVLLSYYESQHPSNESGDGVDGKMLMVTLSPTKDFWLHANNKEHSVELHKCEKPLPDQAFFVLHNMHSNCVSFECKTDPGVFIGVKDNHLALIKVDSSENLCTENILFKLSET
# assay: SPR 25C pH7.4, mAb captured
Measured koff of individual entries
// note: answer is a bare numeric in s⁻¹

H4H9664P (antibody, human IgG4, V domains shown, Human IgG4 Fc (H4H)) VH: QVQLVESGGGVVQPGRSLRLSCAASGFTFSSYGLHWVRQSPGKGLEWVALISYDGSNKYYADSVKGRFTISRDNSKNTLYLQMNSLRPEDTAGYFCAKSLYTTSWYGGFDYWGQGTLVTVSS VL: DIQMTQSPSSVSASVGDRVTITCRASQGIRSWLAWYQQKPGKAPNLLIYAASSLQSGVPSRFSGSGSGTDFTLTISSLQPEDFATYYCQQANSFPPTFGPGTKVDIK: 0.000257

Kindly review the next binder as well.
Give its koff value. Item: H1M9568N (antibody, mouse IgG1, V domains shown, Human variable domains, mouse IgG1 Fc (H1M)) VH: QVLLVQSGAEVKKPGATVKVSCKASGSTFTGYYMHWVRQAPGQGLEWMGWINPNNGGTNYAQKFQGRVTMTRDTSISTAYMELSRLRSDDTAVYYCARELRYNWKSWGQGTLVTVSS VL: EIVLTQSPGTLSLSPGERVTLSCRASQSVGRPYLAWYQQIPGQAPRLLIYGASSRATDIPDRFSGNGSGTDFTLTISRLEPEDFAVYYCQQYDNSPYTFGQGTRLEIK
0.00013
